Where do these numbers come from? They come from ChEMBL document CHEMBL3745614.

- Tested target: Cannabinoid receptor 1 (Homo sapiens) (UniProt P21554)
- Sequence (P21554 whole entry): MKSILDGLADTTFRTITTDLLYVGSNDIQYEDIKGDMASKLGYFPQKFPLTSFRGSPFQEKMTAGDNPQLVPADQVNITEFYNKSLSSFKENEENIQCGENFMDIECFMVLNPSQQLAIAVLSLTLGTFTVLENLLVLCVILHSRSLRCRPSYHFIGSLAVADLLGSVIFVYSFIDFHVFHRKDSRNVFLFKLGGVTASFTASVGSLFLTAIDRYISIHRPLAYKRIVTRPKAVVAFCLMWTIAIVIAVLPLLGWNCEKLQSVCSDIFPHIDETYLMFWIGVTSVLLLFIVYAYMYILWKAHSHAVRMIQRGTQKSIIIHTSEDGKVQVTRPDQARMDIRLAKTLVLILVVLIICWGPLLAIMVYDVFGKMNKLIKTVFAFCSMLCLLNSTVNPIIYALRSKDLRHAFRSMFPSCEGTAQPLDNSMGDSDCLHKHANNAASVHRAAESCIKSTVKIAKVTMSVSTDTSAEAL
- Assay remarks: Antagonist activity at human CBR1 assessed as [35S]GTPgammaS binding at 10 uM by radiometric assay relative to control
- Set-up: scale not given: the % may be the effect or the level left
Quantity name: Activity (%)
Your answer should be a plain number; it is taken to be in %.

Prompt: May I ask what Activity has been recorded for "Cc1ccc(C(=O)NC(=S)Nc2ccc(S(=O)(=O)NC(C)C)cc2)c(Br)c1" ?
Completion: 88

Prompt: May I ask what Activity has been recorded for "CN(C)S(=O)(=O)c1ccc(NC(=S)NC(=O)c2ccc(-c3ccccc3)cc2)cc1" ?
Completion: 96

Prompt: May I ask what Activity has been recorded for "O=C(NC(=S)Nc1ccc(S(=O)(=O)Nc2ccccc2)cc1)c1ccc(-c2ccccc2)cc1" ?
Completion: 95

Prompt: May I ask what Activity has been recorded for "O=C(NCCc1ccccc1)c1ccc(NC(=S)NC(=O)c2ccc(-c3ccccc3)cc2)cc1" ?
Completion: 99

Prompt: May I ask what Activity has been recorded for "CC(C)NS(=O)(=O)c1ccc(NC(=S)NC(=O)c2ccc(-c3ccccc3)cc2)cc1" ?
Completion: 92

---

- Tested target: UniProt:Q9Y2T6
- Sequence (Q9Y2T6 whole entry): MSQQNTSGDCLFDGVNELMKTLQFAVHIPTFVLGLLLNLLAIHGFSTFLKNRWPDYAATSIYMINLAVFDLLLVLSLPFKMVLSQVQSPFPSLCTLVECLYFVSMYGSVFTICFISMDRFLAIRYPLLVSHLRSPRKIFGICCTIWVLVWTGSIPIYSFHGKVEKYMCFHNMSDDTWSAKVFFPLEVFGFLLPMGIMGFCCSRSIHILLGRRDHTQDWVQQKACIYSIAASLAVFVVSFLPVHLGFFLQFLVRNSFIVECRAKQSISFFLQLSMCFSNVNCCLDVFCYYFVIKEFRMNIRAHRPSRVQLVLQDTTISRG
- Assay remarks: Agonist activity at human GPR55 expressed in CHOK1 cells at 10 uM by pathHunter beta-arrestin assay relative to control
- Assay type: cell-based
- Stated conditions: CHO-K1
Quantity name: Activity
Include the unit right after the number.

Please review the following examples before continuing.
1) Cc1ccc(CNS(=O)(=O)c2ccc(NC(=S)NC(=O)c3ccc(-c4ccccc4)cc3)cc2)cc1 220%
2) NS(=O)(=O)c1ccc(NC(=S)NC(=O)c2ccc(-c3ccccc3)cc2)cc1 150%
3) O=C(NC(=S)Nc1ccc(S(=O)(=O)NCc2ccc(F)cc2)cc1)c1ccc(-c2ccccc2)cc1 266%

Prompt: Which Activity is reported with UniProt:Q9Y2T6 for this entry: "O=C(NC(=S)Nc1ccc(S(=O)(=O)NCc2ccc(I)cc2)cc1)c1ccc(-c2ccccc2)cc1" ?
Completion: 157%

Prompt: Which Activity is reported with UniProt:Q9Y2T6 for this entry: "Cc1ccc(C(=O)NC(=S)Nc2ccc(S(=O)(=O)NC(C)C)cc2)c(Br)c1" ?
Completion: 105%

Prompt: Which Activity is reported with UniProt:Q9Y2T6 for this entry: "O=C(NC(=S)Nc1ccc(S(=O)(=O)NCc2ccccc2)cc1)c1ccc(-c2ccccc2)cc1" ?
Completion: 291%

Prompt: Which Activity is reported with UniProt:Q9Y2T6 for this entry: "O=C(NC(=S)Nc1ccc(S(=O)(=O)NCCc2ccccc2)cc1)c1ccc(-c2ccccc2)cc1" ?
Completion: 173%

Prompt: Which Activity is reported with UniProt:Q9Y2T6 for this entry: "COc1ccc(CNS(=O)(=O)c2ccc(NC(=S)NC(=O)c3ccc(-c4ccccc4)cc3)cc2)cc1" ?
Completion: 230%

Prompt: Which Activity is reported with UniProt:Q9Y2T6 for this entry: "Cc1ccc(C(=O)NC(=S)Nc2ccc(S(=O)(=O)NC(C)(C)C)cc2)cc1" ?
Completion: 102%

Prompt: Which Activity is reported with UniProt:Q9Y2T6 for this entry: "O=C(NC(=S)Nc1ccc(S(=O)(=O)Nc2ccc(Cl)cc2)cc1)c1ccc(-c2ccccc2)cc1" ?
Completion: 231%

Prompt: Which Activity is reported with UniProt:Q9Y2T6 for this entry: "CN1CCN(S(=O)(=O)c2ccc(NC(=S)NC(=O)c3ccc(-c4ccccc4)cc3)cc2)CC1" ?
Completion: 218%

Prompt: Which Activity is reported with UniProt:Q9Y2T6 for this entry: "C=CCN(CC=C)S(=O)(=O)c1ccc(NC(=S)NC(=O)c2ccc(-c3ccccc3)cc2)cc1" ?
Completion: 176%

Prompt: Which Activity is reported with UniProt:Q9Y2T6 for this entry: "CC(=O)NS(=O)(=O)c1ccc(NC(=S)NC(=O)c2ccc(C(C)C)cc2)cc1" ?
Completion: 99%

Prompt: Which Activity is reported with UniProt:Q9Y2T6 for this entry: "CN(C)S(=O)(=O)c1ccc(NC(=S)NC(=O)c2ccc(-c3ccccc3)cc2)cc1" ?
Completion: 148%

Prompt: Which Activity is reported with UniProt:Q9Y2T6 for this entry: "O=C(NC(=S)Nc1ccc(S(=O)(=O)Nc2ccccc2)cc1)c1ccc(-c2ccccc2)cc1" ?
Completion: 263%

Prompt: Which Activity is reported with UniProt:Q9Y2T6 for this entry: "C=CCNS(=O)(=O)c1ccc(NC(=S)NC(=O)c2ccc(-c3ccccc3)cc2)cc1" ?
Completion: 285%

Prompt: Which Activity is reported with UniProt:Q9Y2T6 for this entry: "CCCCc1ccc(NS(=O)(=O)c2ccc(NC(=S)NC(=O)c3ccc(-c4ccccc4)cc3)cc2)cc1" ?
Completion: 134%

Prompt: Which Activity is reported with UniProt:Q9Y2T6 for this entry: "C=CCN(CC=C)S(=O)(=O)c1ccc(NC(=S)NC(=O)c2ccc([N+](=O)[O-])cc2)cc1" ?
Completion: 138%

---

The entries below are paired with their reported Activity.
- Tested target: UniProtKB Q99685
- Sequence (whole entry): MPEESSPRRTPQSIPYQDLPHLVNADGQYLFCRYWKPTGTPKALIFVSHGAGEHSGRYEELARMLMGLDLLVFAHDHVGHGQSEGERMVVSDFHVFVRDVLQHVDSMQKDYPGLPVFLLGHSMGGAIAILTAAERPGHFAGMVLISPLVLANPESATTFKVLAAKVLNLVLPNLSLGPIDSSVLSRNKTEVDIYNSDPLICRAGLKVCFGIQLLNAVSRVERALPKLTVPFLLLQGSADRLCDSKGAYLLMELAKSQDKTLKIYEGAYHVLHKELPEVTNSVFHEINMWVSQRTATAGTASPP
- Assay remarks: Inhibition of human MGL expressed in […] cells using 2AG as substrate assessed as residual activity at 10 uM preincubated for 10 mins followed by substrate addition measured after 10 mins by HPLC analysis
- Format: cell-based
Your answer should be a plain number; it is taken to be in %.

Prompt: May I ask what Activity has been recorded for "O=C(NCc1ccccc1)c1ccc(NC(=S)NC(=O)c2ccc(-c3ccccc3)cc2)cc1" ?
Completion: 103

Prompt: May I ask what Activity has been recorded for "O=C(NCCc1ccccc1)c1ccc(NC(=S)NC(=O)c2ccc(-c3ccccc3)cc2)cc1" ?
Completion: 101

Prompt: May I ask what Activity has been recorded for "O=C(NC(=S)Nc1ccc(S(=O)(=O)NCc2ccccc2)cc1)c1ccc(-c2ccccc2)cc1" ?
Completion: 97

---

- Tested target: Monoacylglycerol lipase ABHD6 (Homo sapiens) (UniProt Q9BV23)
- Sequence (Q9BV23 whole entry): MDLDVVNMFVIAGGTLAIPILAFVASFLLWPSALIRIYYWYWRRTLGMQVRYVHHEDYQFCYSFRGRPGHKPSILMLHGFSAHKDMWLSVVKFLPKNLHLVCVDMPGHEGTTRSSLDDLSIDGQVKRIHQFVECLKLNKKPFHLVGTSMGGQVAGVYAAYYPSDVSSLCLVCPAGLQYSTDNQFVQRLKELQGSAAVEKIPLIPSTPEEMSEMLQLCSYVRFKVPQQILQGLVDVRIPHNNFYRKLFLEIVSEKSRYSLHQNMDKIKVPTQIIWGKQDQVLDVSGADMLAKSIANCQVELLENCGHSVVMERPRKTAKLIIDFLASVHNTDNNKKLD
- Assay remarks: Inhibition of human ABHD6 expressed in […] cells using 2-AG as substrate assessed as glycerol liberation at 10 uM preincubated for 30 mins followed by 2-AG addition measured for 90 mins by fluorescent glycerol assay relative to control
- Format: cell-based
- Parameters: scale not given: the % may be the effect or the level left
Could you mark each record true if its Activity falls strictly under 80%, and false if it equals or exceeds it?

Would you please look over these solved cases?
1) O=C(NC(=S)Nc1ccc(S(=O)(=O)Nc2ccc(Cl)cc2)cc1)c1ccc(-c2ccccc2)cc1 false
2) C=CCN(CC=C)S(=O)(=O)c1ccc(NC(=S)NC(=O)c2ccc([N+](=O)[O-])cc2)cc1 true
3) Cc1ccc(C(=O)NC(=S)Nc2ccc(S(=O)(=O)NC(C)(C)C)cc2)cc1 true

Prompt: In the record for "CN1CCN(S(=O)(=O)c2ccc(NC(=S)NC(=O)c3ccc(-c4ccccc4)cc3)cc2)CC1" , is Activity less than 80%?
Completion: true

Prompt: In the record for "NS(=O)(=O)c1ccc(NC(=S)NC(=O)c2ccc(-c3ccccc3)cc2)cc1" , is Activity less than 80%?
Completion: false

Prompt: In the record for "CCCCc1ccc(NS(=O)(=O)c2ccc(NC(=S)NC(=O)c3ccc(-c4ccccc4)cc3)cc2)cc1" , is Activity less than 80%?
Completion: false

Prompt: In the record for "CC(C)NS(=O)(=O)c1ccc(NC(=S)NC(=O)c2ccc(-c3ccccc3)cc2)cc1" , is Activity less than 80%?
Completion: true

---

- Tested target: Monoglyceride lipase (Homo sapiens)
- Assay remarks: Inhibition of human MGL expressed in […] cells using 2AG as substrate assessed as residual activity at 10 uM preincubated for 10 mins followed by substrate addition measured after 10 mins by HPLC analysis
- Type: cell-based
Quantity name: Activity (%)
Your answer should be a plain number; it is taken to be in %.

Please review the following examples before continuing.
1. COc1ccc(CNS(=O)(=O)c2ccc(NC(=S)NC(=O)c3ccc(-c4ccccc4)cc3)cc2)cc1 105
2. CC(=O)NS(=O)(=O)c1ccc(NC(=S)NC(=O)c2ccc(C(C)C)cc2)cc1 99
3. NS(=O)(=O)c1ccc(NC(=S)NC(=O)c2ccc(-c3ccccc3)cc2)cc1 94

Prompt: Which Activity is reported with Monoglyceride lipase (Homo sapiens) for this entry: "C=CCN(CC=C)S(=O)(=O)c1ccc(NC(=S)NC(=O)c2ccc(-c3ccccc3)cc2)cc1" ?
Completion: 96

Prompt: Which Activity is reported with Monoglyceride lipase (Homo sapiens) for this entry: "COc1ccc(C(=O)NC(=S)Nc2ccc(S(=O)(=O)NC(C)C)cc2)cc1" ?
Completion: 93

Prompt: Which Activity is reported with Monoglyceride lipase (Homo sapiens) for this entry: "O=C(NC(=S)Nc1ccc(S(=O)(=O)NCc2ccc(I)cc2)cc1)c1ccc(-c2ccccc2)cc1" ?
Completion: 98

Prompt: Which Activity is reported with Monoglyceride lipase (Homo sapiens) for this entry: "CN(C)S(=O)(=O)c1ccc(NC(=S)NC(=O)c2ccc(-c3ccccc3)cc2)cc1" ?
Completion: 93

Prompt: Which Activity is reported with Monoglyceride lipase (Homo sapiens) for this entry: "O=C(NC(=S)Nc1ccc(S(=O)(=O)NCc2ccc(F)cc2)cc1)c1ccc(-c2ccccc2)cc1" ?
Completion: 98

Prompt: Which Activity is reported with Monoglyceride lipase (Homo sapiens) for this entry: "CCCNS(=O)(=O)c1ccc(NC(=S)NC(=O)c2ccc(-c3ccccc3)cc2)cc1" ?
Completion: 103
